Target: Neurogenic locus notch homolog protein 2 (Homo sapiens)
Assay: Notch2 binders on small-molecule microarrays, primary screen, biochemical, small-molecule microarray, 635 nm fluorescence, stem cell growth factors (AID 1073)
Details: Notch2 binding, higher = more signal
composite z-score below 0.6 gives not met; composite z-score at or above it gives met.

COMPOUND | CLASS
CC(C)[C@@H](OCc1ccccc1)[C@H](C)C=NOC[C@@H](C)[C@H](OCc1ccccc1)C(C)C | not met
COC(=O)C1(C)C=C2C(=C(c3ccccc3)C(=O)C2C)CN1 (configuration not stated) | not met
C=C(/C(=C/C[C@@H](OC(=O)c1ccncc1)c1ccc(OCCO)cc1)c1cnc2ccccc2c1)C(C)C | met
CC1(C)OCC(C(O)C2=CCCCC2=O)CO1 (configuration not stated) | not met
CCc1cc2c(nc1CC)CCN(CCC(C)=NOC[C@@H](O)COCc1ccco1)C2 | met
C=CC[C@@H]1C=C[C@H](ON=C(C)CCN2CCc3nc(CC)c(CC)cc3C2)[C@@H](CO)O1 | not met
CCN(CC)c1ccc(N2CC=CC34O[C@@H]5/C=C\CCC(C)OC(=O)C5[C@H]3C(=O)N(CCCO)[C@@H]4C2=O)cc1 (some centres not stated) | not met
C=COC[C@H]1CN2[C@@H](CC[C@@H](C)[C@@H]2c2ccc(Br)cc2)C(=O)O1 | met
COC(=O)[C@H]1COC(c2ccc(OCCCO)cc2)=N1 | not met
COc1ccc(OC[C@H]2Cc3c(-c4ccccc4)nc4c(c3CO2)CN(CCOc2ccccc2)CC4)cc1 | met
C=CC[C@@H]1C=C[C@H](ON=C[C@@H](OC)[C@H](C)C=CCC(=O)OC)[C@@H](CO)O1 | not met
CC[C@@H](c1ccccc1)n1c(=O)n2n(c1=O)[C@H]1[C@H](O)[C@@H]3O[C@@H]3C(=NOCC(C)C)[C@H]1CC2 | not met
C[C@@H](c1ccccc1)N1C(=O)[C@H]2[C@H]3[C@H](O)[C@H](O)CC(=NNC(=O)OCc4ccccc4)[C@H]3CC[C@H]2C1=O | not met
CC=CC1=C(CO)[C@H](O)[C@H]2O[C@H]2[C@H]1O | not met
CCCCC(=C=CC[C@H](O)c1ccccc1OCCO)C[C@H](O)COCc1ccccc1 | not met

###

Tested on: Neuregulin-1 EGF-like domain
Assay: binders of neuregulin-1 EGF-like domain, primary screen, biochemical, small-molecule microarray, 635 nm fluorescence (AID 1081);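 further: binding of the protein to compounds printed on small-molecule microarray slides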
Conditions: small-molecule microarray binding, higher = more signal
Give 1 when the value for composite z-score is at least 0.7. Give 0 when it is less.

COMPOUND | CLASS
O=C1[C@H]2[C@H]3[C@H](O)[C@H](O)CC(=NOC[C@@H](O)COCc4ccco4)[C@H]3CC[C@H]2C(=O)N1c1cccc(Oc2ccccc2)c1 | 0
CO[C@H]1COC(=O)[C@H](C)NC(=O)[C@@H](C)COC(=O)CC=C[C@@H]1C | 0
CC(C)(C)OC(=O)CC[C@]1(C(=O)NCc2ccccc2)N=C(c2ccc(OCCCO)cc2)O[C@H]1c1ccccc1 | 1
CCOC(=O)C1=CC[C@H]2C(=O)N(CC)C(=O)[C@@H]12 | 1
CC(=O)OC[C@H]1O[C@H](C#CCCCc2ccccc2)C=C[C@@H]1OC(C)=O | 1
CCCCc1nc2c(c3c1C[C@H](C)OC3)CN(CCC(C)C)CC2 | 1
CCN1C(=O)[C@H]2[C@H]3[C@H](O)C=CC(=O)[C@@H]3CC[C@H]2C1=O | 0
C=CCN1C(=O)[C@]2(O[C@H](CCn3cc(CCO)nn3)[C@@H]([Si](C)(C)c3ccc(OC)cc3)[C@@H]2C)c2cc(N3CCOC3=O)ccc21 | 1
CCOC(=O)CCN1C(=O)[C@H]2[C@H]3[C@H](O)C=CC(=O)[C@@H]3CC[C@H]2C1=O | 0
CC(C)CON=C1C[C@@H](O)[C@@H](O)[C@@H]2[C@@H]3C(=O)N(C[C@@H]4CCCO4)C(=O)[C@@H]3CC[C@H]12 | 0
CC(C)NC(=O)[C@@]1(c2ccc([N+](=O)[O-])cc2)CC(=O)N(CC23CC4CC(CC(C4)C2)C3)[C@@H]1c1ccc(CO)cc1I | 1
COc1ccc([Si](C)(C)[C@@H]2[C@@H](CCO)O[C@]3(C(=O)N(Cc4ccc(NC(C)=O)cc4)c4ccccc43)[C@H]2C)cc1 | 1
COCCOC(=O)N1C(=O)[C@@]2(c3cc(C#CCNC(N)=O)ccc31)[C@H](c1ccccc1OCCO)N1[C@H](c3ccccc3)[C@H](c3ccccc3)OC(=O)[C@H]1[C@@H]2C(=O)N1CCN(c2ncccn2)CC1 | 1
CC(C)[C@@H](OCc1ccccc1)[C@H](C)C=NO[C@H](C)c1cn([C@H](CO)Cc2ccccc2)nn1 | 0
COC(=O)[C@H](C)NC(=O)CCC1CC(OC(=O)NCc2cccc3ccccc23)CC2(CCCC(COC(=O)NCC3CCCCC3)O2)O1 (stereo partly specified) | 1
C[C@@H]1C=CCC(=O)OC[C@H](C)C(=O)N[C@@H](C)C(=O)OC1 | 0
